Some binders, each annotated with its measured koff.
- experimental system: T1, Extracellular domain (ECD) of the canine IL-4 receptor alpha-AviTag-His Tag (canine)
- T1 construct: expressed in CHO cells; also called canine IL-4RA; canine IL4Ra
- T1 chain: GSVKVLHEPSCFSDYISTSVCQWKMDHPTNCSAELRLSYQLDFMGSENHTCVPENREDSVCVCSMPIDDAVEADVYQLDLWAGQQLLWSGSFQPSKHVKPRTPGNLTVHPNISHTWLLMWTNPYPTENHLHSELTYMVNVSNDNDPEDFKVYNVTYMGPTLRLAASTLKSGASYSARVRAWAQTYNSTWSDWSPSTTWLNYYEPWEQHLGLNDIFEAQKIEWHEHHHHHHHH
- protocol details: SPR, IgG captured via anti-dog Fc
readout type: koff (s⁻¹)

binder	units label	test value
21188-H + GFmix3_KTHS-L (antibody, V domains shown) VH: EVQLVESGGDLVKPGGSLRLSCVASGFTFRDYAMTWVRQAPGKGLQWLSLISGSGGKTYYADAVKGRFTISRDNAKNTLYLQMNSLRAEDTAVYYCAVDRLTKTIRPQYYGLWHWGQGTLVTVSS VL: DIVMTQTPLSLSVSPGETASISCRSSKSLTYSIGYNYLDWYMQKPGQSPQGLIYLGSKRASGVSDRFSGSGSGADFTLKISRVEADDAGVYYCMQGLHSPLSFGQGTKLEIKR	s⁻¹	4.79e-05
21188-H + GFmix_THS-L (antibody, V domains shown) VH: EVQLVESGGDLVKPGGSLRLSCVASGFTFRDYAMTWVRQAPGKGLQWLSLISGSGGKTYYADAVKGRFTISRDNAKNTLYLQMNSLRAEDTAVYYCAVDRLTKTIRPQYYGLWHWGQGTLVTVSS VL: DIVMTQTPLSLSVSPGETASISCRSSQSLTYSIGYNYLDWYMQKPGQSPQGLIYLGSKRASGVSDRFSGSGSGADFTLKISRVEADDAGVYYCMQGLHSPLGFGQGTKLEIKR	s⁻¹	5.78e-05
21188-H + FJP10A09-L (antibody, V domains shown) VH: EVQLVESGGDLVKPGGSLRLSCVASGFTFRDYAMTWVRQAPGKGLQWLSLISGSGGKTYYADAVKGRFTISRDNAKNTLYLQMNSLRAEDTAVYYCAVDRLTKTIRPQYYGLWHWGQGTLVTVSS VL: DIVMTQTPLSLSVSPGETASISCRSSQSLTYSIGYNYLDWYMQKPGQSPQGLIYLGSKRASGVSDRFSGSGSGADFTLKISRVEADDAGVYYCMQGLHSPLSFGQGTKLEIKR	s⁻¹	4.62e-05
21188-H + GFmix2_KTHG-L (antibody, V domains shown) VH: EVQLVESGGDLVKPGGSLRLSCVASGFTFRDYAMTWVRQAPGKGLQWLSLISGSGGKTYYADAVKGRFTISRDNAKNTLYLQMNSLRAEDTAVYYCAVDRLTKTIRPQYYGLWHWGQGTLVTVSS VL: DIVMTQTPLSLSVSPGETASISCRSSKSLTYSIGYNYLDWYMQKPGQSPQGLIYLGSKRASGVSDRFSGSGSGADFTLKISRVEADDAGVYYCMQGLHSPLGFGQGTKLEIKR	s⁻¹	5.92e-05
